# system: HIV-1 Env of isolate MGRM-C-024 (subtype C) (HIV-1)
# method_summary: cell-based or functional assay
I'd be grateful if you could share measured IC50 (µg/mL), pseudovirus neutralization for these entries.

Return IC50 (µg/mL), pseudovirus neutralization for the following binder: PGT-127 (antibody, V domains shown) VH: QPQLQESGPGLVEASETLSLTCTVSGDSTGRCNYFWGWVRQPPGKGLEWIGSLSHCRSYYNTDWTYHNPSLKSRLTISLDTPKNQVFLRLTSVTAADTATYYCARFGGEVLVYRDWPKPAWVDLWGRGTLVVTVS VL: QSALTQPPSASGSPGQSITISCTGTSNNFVSWYQQYPGKAPKLVIYEVNKRPSGVPDRFSGSKSGSTASLTVSGLQADDEGVYYCSSLVGNWDVIFGGGTKLTVL > 50 µg/mL

Return IC50 (µg/mL), pseudovirus neutralization for the following binder: PGT-126 (antibody, V domains shown) VH: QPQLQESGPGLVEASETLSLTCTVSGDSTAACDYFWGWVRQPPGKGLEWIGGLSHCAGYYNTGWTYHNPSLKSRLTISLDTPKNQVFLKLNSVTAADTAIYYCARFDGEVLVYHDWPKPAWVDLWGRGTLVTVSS VL: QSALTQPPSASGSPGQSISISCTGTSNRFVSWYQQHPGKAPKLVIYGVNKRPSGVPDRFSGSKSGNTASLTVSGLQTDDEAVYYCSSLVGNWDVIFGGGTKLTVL > 50 µg/mL

Return IC50 (µg/mL), pseudovirus neutralization for the following binder: PGT-123 (antibody, V domains shown) VH: QLHLQESGPGLVKPPETLSLTCSVSGASINDAYWSWIRQSPGKRPEWVGYVHHSGDTNYNPSLKRRVTFSLDTAKNEVSLKLVDLTAADSATYFCARALHGKRIYGIVALGELFTYFYMDVWGKGTAVTVSS VL: SSMSVSPGETAKISCGKESIGSRAVQWYQQKPGQPPSLIIYNNQDRPAGVPERFSASPDFRPGTTATLTITNVDAEDEADYYCHIYDARGGTNWVFDRGTTLTVL 0.195 µg/mL

Return IC50 (µg/mL), pseudovirus neutralization for the following binder: PGT-125 (antibody, V domains shown) VH: QSQLQESGPRLVEASETLSLTCNVSGESTGACTYFWGWVRQAPGKGLEWIGSLSHCQSFWGSGWTFHNPSLKSRLTISLDTPKNQVFLKLTSLTAADTATYYCARFDGEVLVYNHWPKPAWVDLWGRGIPVTVSS VL: QSALTQPPSASGSPGQSITISCNGTATNFVSWYQQFPDKAPKLIIFGVDKRPPGVPDRFSGSRSGTTASLTVSRLQTDDEAVYYCGSLVGNWDVIFGGGTTLTVL > 50 µg/mL
